Biological target: MMP-1 (Homo sapiens)
Sequence (P03956 100-469): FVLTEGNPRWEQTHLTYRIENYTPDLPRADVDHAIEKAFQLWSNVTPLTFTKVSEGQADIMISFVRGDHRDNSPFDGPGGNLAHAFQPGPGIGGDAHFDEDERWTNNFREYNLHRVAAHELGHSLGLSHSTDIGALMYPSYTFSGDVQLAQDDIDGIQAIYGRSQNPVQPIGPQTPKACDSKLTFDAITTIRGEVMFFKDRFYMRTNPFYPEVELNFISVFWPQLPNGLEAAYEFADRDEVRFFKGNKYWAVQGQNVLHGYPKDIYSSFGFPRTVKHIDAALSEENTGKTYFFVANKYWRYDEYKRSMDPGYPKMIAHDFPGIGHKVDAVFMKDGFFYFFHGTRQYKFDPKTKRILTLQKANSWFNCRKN
Experiment: MMP-1 inhibition (thiopeptide or fluorescent peptide substrate)
Format: biochemical
Details: plain number = IC50
ASSAY_READOUT: IC50 (nM)

I: COc1ccc(C#CCOc2ccc(S(=O)(=O)N(C)c3c(C)cc(Br)cc3C(=O)NO)cc2)cc1
II: CCC#CCOc1ccc(S(=O)(=O)N(C)c2c(C)cc(Br)cc2C(=O)NO)cc1
III: Cc1cc(Br)cc(C(=O)NO)c1N(C)S(=O)(=O)c1ccc(OCC#Cc2cccc(O)c2)cc1
IV: CCCC#CCOc1ccc(S(=O)(=O)N(C)c2c(C)cc(Br)cc2C(=O)NO)cc1
(Q) Ranking field: IC50; order: falling. Give the labels in the order specified.
(A) I, IV, II, III

---

biological target: MMP-9 (Homo sapiens, UniProt P14780); experiment: MMP-9 inhibition (thiopeptide or fluorescent peptide substrate); format: biochemical
Sequence (P14780 94-707): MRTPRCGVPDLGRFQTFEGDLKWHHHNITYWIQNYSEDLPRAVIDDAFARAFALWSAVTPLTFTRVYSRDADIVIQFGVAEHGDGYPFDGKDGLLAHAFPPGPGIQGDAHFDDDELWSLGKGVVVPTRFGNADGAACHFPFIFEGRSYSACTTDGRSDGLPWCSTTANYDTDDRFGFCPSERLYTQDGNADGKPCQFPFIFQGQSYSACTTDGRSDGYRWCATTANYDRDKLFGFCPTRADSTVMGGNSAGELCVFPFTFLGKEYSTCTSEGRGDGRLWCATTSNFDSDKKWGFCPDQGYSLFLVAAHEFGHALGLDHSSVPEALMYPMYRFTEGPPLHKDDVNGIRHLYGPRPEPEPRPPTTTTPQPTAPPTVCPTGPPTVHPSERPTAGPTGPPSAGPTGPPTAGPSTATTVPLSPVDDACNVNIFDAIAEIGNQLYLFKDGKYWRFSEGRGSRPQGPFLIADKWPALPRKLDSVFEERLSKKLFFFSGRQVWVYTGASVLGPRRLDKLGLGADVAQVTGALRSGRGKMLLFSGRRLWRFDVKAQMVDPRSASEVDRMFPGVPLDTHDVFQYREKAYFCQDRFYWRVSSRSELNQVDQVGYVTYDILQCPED
ASSAY_READOUT: IC50 (nM)

# COMPOUND, UNIT_TEXT, IC50
records = [
    ("Cc1cc(Br)cc(C(=O)NO)c1N(C)S(=O)(=O)c1ccc(OCC#CCNCCN(C)C)cc1", "nM", 790),
    ("C#CC(C)Oc1ccc(S(=O)(=O)N(C)c2c(C)cc(Br)cc2C(=O)NO)cc1 (centres unmarked)", "nM", 455),
    ("COc1cccc(C#CCOc2ccc(S(=O)(=O)N(C)c3c(C)cc(Br)cc3C(=O)NO)cc2)c1", "nM", 671),
    ("CC#CCOc1ccc(S(=O)(=O)N(C)c2c(C)cc(-c3ccccc3)cc2C(=O)NO)cc1", "nM", 578),
    ("CCCCC#CCOc1ccc(S(=O)(=O)N(C)c2c(C)cc(Br)cc2C(=O)NO)cc1", "nM", 389),
]

A: Cc1cc(Br)cc(C(=O)NO)c1N(C)S(=O)(=O)c1ccc(OCC#CCNC2CCC2)cc1
B: C#CCOc1ccc(S(=O)(=O)N(C)c2c(C)cc(Br)cc2C(=O)NO)cc1
(Q) Param pair: A , B . Output: the one whose IC50 is numerically greater. Answer with the label corresponding to your selection.
(A) A

---

target: MMP-9 (Homo sapiens); assay: MMP-9 inhibition (thiopeptide or fluorescent peptide substrate); assay type: biochemical
ASSAY_READOUT: IC50 (nM)

# COMPOUND, UNIT_TEXT, OBSERVED_RESULT
rows = [
    ("CC#CCOc1ccc(S(=O)(=O)N(C)c2c(C)cc(I)cc2C(=O)NO)cc1 [Example 63]", "nM", 840),
]

I: Cc1cc(Br)cc(C(=O)NO)c1N(C)S(=O)(=O)c1ccc(OCC#Cc2ccccc2)cc1 [Example 59]
II: CCCC#CCOc1ccc(S(=O)(=O)N(C)c2c(C)cc(Br)cc2C(=O)NO)cc1 [Example 57]
III: Cc1cc(Br)cc(C(=O)NO)c1N(C)S(=O)(=O)c1ccc(OCC#CCO)cc1 [Example 70]
(Q) Arrange these 3 compounds in increasing order of IC50. Response format: the labels, sorted as the prompt asks.
(A) II, III, I

A: COc1ccc(C#CCOc2ccc(S(=O)(=O)N(C)c3c(C)cc(Br)cc3C(=O)NO)cc2)cc1 [Example 62]
B: CC#CCOc1ccc(S(=O)(=O)N(C)c2c(C)cc(Br)cc2C(=O)NO)cc1 [Example 54]
(Q) Lab note: check whether A or B has the lower measured IC50. API: response body contains the label of the selected item.
(A) B

---

target: MMP-1 (Homo sapiens, UniProt P03956); assay: MMP-1 inhibition (thiopeptide or fluorescent peptide substrate); type: biochemical; settings: read-out: IC50 (nM) or % Inhibition (µM) MMP-1
ASSAY_READOUT: inhibition at 10 µM (%)

# COMPOUND, OBSERVED_RESULT
measured = [
    ("CNCC#CCOc1ccc(S(=O)(=O)N(C)c2c(C)cc(Br)cc2C(=O)NO)cc1", 26),
    ("CCCCC#CCOc1ccc(S(=O)(=O)N(C)c2c(C)cc(Br)cc2C(=O)NO)cc1", 53),
]

1: Cc1cc(Br)cc(C(=O)NO)c1N(C)S(=O)(=O)c1ccc(OCC#CCOC2CCCCO2)cc1 (stereo not shown)
2: Cc1cc(Br)cc(C(=O)NO)c1N(C)S(=O)(=O)c1ccc(OCC#CCNCCN(C)C)cc1
(Q) Which entry has a larger number for inhibition at 10 µM, 1 or 2 ? Write the label of whichever entry you select.
(A) 2
(2: 39%, 1: 25%)

---

molecular target: TNF-α converting enzyme (TACE) (Homo sapiens, UniProt P78536); assay: TACE inhibition (fluorescent peptidyl substrate); assay type: biochemical; conditions: read-out: IC50 (nM) or % Inhibition (µM) TACE
Sequence (P78536 215-824, species assumed): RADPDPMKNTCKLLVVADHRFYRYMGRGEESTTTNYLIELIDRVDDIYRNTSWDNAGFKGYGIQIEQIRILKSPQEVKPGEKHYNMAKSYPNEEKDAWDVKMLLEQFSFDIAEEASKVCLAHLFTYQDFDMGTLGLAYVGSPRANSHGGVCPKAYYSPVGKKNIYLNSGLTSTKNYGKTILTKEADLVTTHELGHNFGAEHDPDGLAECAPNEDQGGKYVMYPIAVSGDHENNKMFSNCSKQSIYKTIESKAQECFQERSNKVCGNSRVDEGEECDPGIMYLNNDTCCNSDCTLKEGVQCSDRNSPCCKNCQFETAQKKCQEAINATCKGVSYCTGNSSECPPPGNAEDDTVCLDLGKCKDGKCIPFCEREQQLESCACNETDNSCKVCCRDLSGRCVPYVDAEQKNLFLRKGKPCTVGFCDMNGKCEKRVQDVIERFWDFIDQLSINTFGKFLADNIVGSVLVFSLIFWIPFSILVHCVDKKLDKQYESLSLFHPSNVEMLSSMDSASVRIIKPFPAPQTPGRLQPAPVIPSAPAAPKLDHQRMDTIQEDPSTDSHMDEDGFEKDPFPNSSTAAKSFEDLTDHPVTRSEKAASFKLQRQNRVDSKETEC
ASSAY_READOUT: IC50 (nM)

# COMPOUND, OBSERVED_RESULT
records = [
    ("CC#CCOc1ccc(S(=O)(=O)N(C)c2c(C)cc(I)cc2C(=O)NO)cc1", 16),
]

a: Cc1cc(Br)cc(C(=O)NO)c1N(C)S(=O)(=O)c1ccc(OCC#Cc2ccccc2)cc1
b: CCC#CCOc1ccc(S(=O)(=O)N(C)c2c(C)cc(Br)cc2C(=O)NO)cc1
(Q) Of a and b , which one carries the higher reported IC50? Mark your selection by writing its label.
(A) a
(a: 66 nM, b: 12 nM)

---

Molecular target: UniProt:P14780
Assay: MMP-9 inhibition (thiopeptide or fluorescent peptide substrate)
Type: biochemical
Experimental: The enzyme activity is measured by the rate of the color increase. The thiopeptide substrate is made up fresh as a 20 mM stock in 100% DMSO and the DTNB is dissolved in 100% DMSO as a 100 mM stock and stored in the dark at room temperature. […] Alternatively, a fluorescent peptide substrate is used. […] Upon cleavage of the substrate by an MMP, the fluorescence that is generated is quantitated on the fluorescence plate reader. […]
ASSAY_READOUT: IC50 (nM)

Recorded IC50, per entry:
# COMPOUND, SYSTEM_NAME, IC50, nM
rows = [
    ("Cc1cc(Br)cc(C(=O)NO)c1N(C)S(=O)(=O)c1ccc(OCC#CCN2CCCC2)cc1", "UniProt:P14780", 602),
    ("CNCC#CCOc1ccc(S(=O)(=O)N(C)c2c(C)cc(Br)cc2C(=O)NO)cc1", "UniProt:P14780", 643),
    ("CC#CCOc1ccc(S(=O)(=O)N(C)c2c(CN3CCN(C)CC3)cc(-c3ccccc3)cc2C(=O)NO)cc1", "UniProt:P14780", 28),
]

P: Cc1cc(Br)cc(C(=O)NO)c1N(C)S(=O)(=O)c1ccc(OCC#CCOC2CCCCO2)cc1 (stereo not drawn)
Q: Cc1cc(Br)cc(C(=O)NO)c1N(C)S(=O)(=O)c1ccc(OCC#CCNCCCN(C)C)cc1
(Q) Which value of IC50 is greater, the one for P or the one for Q ? Kindly give the label for the entry you pick.
(A) Q
(Q: 1200 nM, P: 396 nM)

---

Biological target: TNF-α converting enzyme (TACE) (Homo sapiens, UniProt P78536)
Experiment: TACE inhibition (fluorescent peptidyl substrate)
Assay type: biochemical
Settings: read-out: IC50 (nM) or % Inhibition (µM) TACE
Experimental: Using 96-well black microtiter plates, each well receives a solution composed of 10 µL TACE (final concentration 1µg/mL), 70µL Tris buffer, pH 7.4 containing 10% glycerol (final concentration 10 mM), and 10 µL of test compound solution in DMSO (final concentration 1µM, DMSO concentration <1%) and incubated for 10 minutes at room temperature. […] The reaction is read (excitation 340 nm, emission 420 nm) for 10 min. and the increase in fluorescence over time is plotted as a linear line. […]
ASSAY_READOUT: IC50 (nM)

# COMPOUND, ASSAY_READOUT, OBSERVED_RESULT
rows = [
    ("COc1ccc(C#CCOc2ccc(S(=O)(=O)N(C)c3c(C)cc(Br)cc3C(=O)NO)cc2)cc1 [Example 62]", "IC50", 104),
    ("COc1cccc(C#CCOc2ccc(S(=O)(=O)N(C)c3c(C)cc(Br)cc3C(=O)NO)cc2)c1 [Example 60]", "IC50", 91),
]

1: CNCC#CCOc1ccc(S(=O)(=O)N(C)c2c(C)cc(Br)cc2C(=O)NO)cc1 [Example 32]
2: CCN(CC)CC#CCOc1ccc(S(=O)(=O)N(C)c2c(C)cc(Br)cc2C(=O)NO)cc1 [Example 66]
3: CC#CCOc1ccc(S(=O)(=O)N(Cc2ccccc2)c2c(C)cc(C)cc2C(=O)NO)cc1 [Example 64]
4: C#CCOc1ccc(S(=O)(=O)N(C)c2c(C)cc(Br)cc2C(=O)NO)cc1 [Example 53]
(Q) // smallest IC50 at index 0, largest at the end Field: ranking. Enter the labels in the order requested.
(A) 4, 1, 3, 2

1: CC#CCOc1ccc(S(=O)(=O)N(C)c2c(C)cc(-c3ccccc3)cc2C(=O)NO)cc1 [Example 43]
2: COc1ccccc1C#CCOc1ccc(S(=O)(=O)N(C)c2c(C)cc(Br)cc2C(=O)NO)cc1 [Example 61]
(Q) When their IC50 values are compared, which is larger, 1 or 2 ? Reply briefly: the label of your chosen item.
(A) 2
